Target: T1, PUF4 RNA-binding domain (Saccharomyces cerevisiae, UniProt P25339 537-888)
T1 sequence: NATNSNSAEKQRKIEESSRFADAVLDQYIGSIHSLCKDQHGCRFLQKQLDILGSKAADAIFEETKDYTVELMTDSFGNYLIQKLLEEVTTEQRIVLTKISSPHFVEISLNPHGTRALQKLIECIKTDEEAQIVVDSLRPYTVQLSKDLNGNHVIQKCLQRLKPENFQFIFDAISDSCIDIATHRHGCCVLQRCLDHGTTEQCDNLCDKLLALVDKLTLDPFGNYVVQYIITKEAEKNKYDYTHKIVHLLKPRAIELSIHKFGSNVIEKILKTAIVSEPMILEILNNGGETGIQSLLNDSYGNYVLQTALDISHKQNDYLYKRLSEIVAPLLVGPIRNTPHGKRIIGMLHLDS
Experiment: Mg; RNA-MaP; 20 mM Na-HEPES pH 7.4, 30 mM KOAc, 0.75 mM MgCl2, 0.1% Tween-20, 5% glycerol, 0.1 mg/mL BSA, 2 mM DTT; 25 C; 0.0125-409.6 nM protein
Details: tags: N-His6-TEV cleaved; C-SNAP kept, Cy3B-labelled; label: tethered on chip by stalled RNA polymerase
Readings of Kd for the listed binders

Sample records with Kd:
BINDER: Ic_S4_P4E.1_K4.1_C4.1_H4.1_A4.1_[T5A]_[A6C]_F4.1_[T8A]_[A9C]_T4.1 (ssRNA) RNA: UUUGACAACUGAUCGUUCUUUCUUGUAACUACUUCUUUCUCGAUCAGUUGUCUUU
Kd: 287 nM
//
BINDER: Id_ii_S2_P5E.3_K5.2_C5.2_[C-2G]_[T-1C]_H5.2_A5.1_F5.1_T5.2_[A12C] (ssRNA) RNA: UUUGAUUAAUAUGAUAUCGUUCUUUCUGCUAUAUUAUUAUCUUCUUUCUCGAUAUCAUAUUAAUCUUU
Kd: 455 nM
//
BINDER: Ic_S4_P4E.1_K4.1_C4.1_H4.1_A4.1_[A6T]_F4.1_[T8G]_[A9G]_T4.1 (ssRNA) RNA: UUUGACAACUGAUCGUUCUUUCUUGUAUUUGGUUCUUUCUCGAUCAGUUGUCUUU
Kd: 230 nM
//
BINDER: Id_ii_S4_P3E.3_K3.2_C3.2_[C-2A]_[T-1A]_H3.2_A3.1_F3.1_T3.2_[T9C]_[A10T] (ssRNA) RNA: UUUGACAACUGAUCGUUCUUUCUAAUAUAUAUACUUUCUUUCUCGAUCAGUUGUCUUU
Kd: 167 nM
//
BINDER: Ic_S2_P5E.1_K5.1_C5.1_H5.1_A5.1_[T5C]_[A7G]_F5.1_[T8G]_T5.1 (ssRNA) RNA: UUUGAUUAAUAUGAUAUCGUUCUUUCUUGUACUGGUAUUCUUUCUCGAUAUCAUAUUAAUCUUU
Kd: 38.2 nM

Proceeding to the next binder to report its Kd.
// query Return reported Kd; argument: UCUCUUCAUGUAUAUAUCUCUCUU (ssRNA) [Id_ii_S1_P3E.2_K3.1_C3.2_[T-1A]_H3.1_A3.1_F3.1_T3.2_[A10C]]
// result 8.05 nM

Origin of the recorded values: paper PMC9352680
